Target Or Test System: T1, human Prostate Specific Membrane Antigen (PSMA) (human, UniProt Q04609 1-750)
T1 construct: whole, on cells; also called Glutamate Carboxypeptidase II; FOLH1
T1 sequence (Q04609 whole entry): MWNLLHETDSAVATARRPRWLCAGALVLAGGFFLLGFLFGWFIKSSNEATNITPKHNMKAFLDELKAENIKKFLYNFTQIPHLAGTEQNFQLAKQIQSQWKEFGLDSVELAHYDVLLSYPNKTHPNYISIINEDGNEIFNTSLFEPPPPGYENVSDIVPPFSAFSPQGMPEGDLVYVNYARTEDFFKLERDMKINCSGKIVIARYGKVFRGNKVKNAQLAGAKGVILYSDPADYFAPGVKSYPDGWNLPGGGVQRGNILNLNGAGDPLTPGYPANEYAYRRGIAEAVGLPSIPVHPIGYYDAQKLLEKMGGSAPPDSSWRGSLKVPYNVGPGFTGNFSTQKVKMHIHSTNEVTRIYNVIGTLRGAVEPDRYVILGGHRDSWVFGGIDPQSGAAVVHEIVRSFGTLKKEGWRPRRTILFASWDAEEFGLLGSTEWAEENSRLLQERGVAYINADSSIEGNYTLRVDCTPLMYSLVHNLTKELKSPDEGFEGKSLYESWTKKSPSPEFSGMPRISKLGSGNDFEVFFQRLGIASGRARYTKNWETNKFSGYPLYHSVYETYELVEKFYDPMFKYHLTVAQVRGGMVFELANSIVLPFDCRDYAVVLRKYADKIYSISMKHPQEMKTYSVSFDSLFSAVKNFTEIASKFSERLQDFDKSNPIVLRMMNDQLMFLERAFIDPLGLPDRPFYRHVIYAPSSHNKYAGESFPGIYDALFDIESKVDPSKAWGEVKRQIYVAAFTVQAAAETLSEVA
Experimental Details: flow cytometry on LNCaP cells
Collected fold over background MFI values appear next to each entry.
Answer in fold over background, number only, no unit symbol.

Example results:
anti-PSMA heavy-chain antibody (HCAb) clone ID 345493 (antibody, V domains shown, Heavy chain-only antibody (UniAb)) VH: QVQLVESGGGVVQPGRSLRLSCAASGFSFSRYGMHWVRQAPGKGLEWVAVIWYDGSNRYYADSVKGRFTISRDNSKNTLYLQMNSLRAEDTAVYYCAREPRIGYYYESSGYYSLDYRGQGTLVTVSS ... 101
anti-PSMA heavy-chain antibody (HCAb) clone ID 345490 (antibody, V domains shown, Heavy chain-only antibody (UniAb)) VH: QVQLVESGGGLVKPGGSLRLSCAASGFSFSSYGMHWVRQAPGKGLEGVAVIWYDGSNRYYADSVKGRFTISRDNSKNTLYLQMNSLRAEDTAVYYCAREPRIGYYYESSGYYSLDYRGQGTLVTVSS ... 80
anti-PSMA heavy-chain antibody (HCAb) clone ID 345480 (antibody, V domains shown, Heavy chain-only antibody (UniAb)) VH: QVQLVESGGGVVQPGRSLRLSCAASGFSFSSYGMHWVRQAPGKGLEWVAVIWYDGSNRYYADSVKGRFTISRDNSKNTLYLQMNSLRAEDTAVYYCAREPRIGYYYESSGYYSLDYRGQGTLVTVSS ... 47

Kindly review the next binder as well.
What the record says about anti-PSMA heavy-chain antibody (HCAb) clone ID 345447 (antibody, V domains shown, Heavy chain-only antibody (UniAb)) VH: QVQLVESGGGVVQPGRSLRLSCAASGFSFSSYGMHWVRQAPGKGLEGVAVISYDGSNRYYADSVKGRFTISRDNSKNTLYLQMNSLRAEDTAVYYCAREPRIGYYYESSGYYSLDYRGQGTLVTVSS : fold over background MFI is 14
